Molecular target: SHP1 (Homo sapiens, UniProt P29350)
Sequence (P29350 whole entry): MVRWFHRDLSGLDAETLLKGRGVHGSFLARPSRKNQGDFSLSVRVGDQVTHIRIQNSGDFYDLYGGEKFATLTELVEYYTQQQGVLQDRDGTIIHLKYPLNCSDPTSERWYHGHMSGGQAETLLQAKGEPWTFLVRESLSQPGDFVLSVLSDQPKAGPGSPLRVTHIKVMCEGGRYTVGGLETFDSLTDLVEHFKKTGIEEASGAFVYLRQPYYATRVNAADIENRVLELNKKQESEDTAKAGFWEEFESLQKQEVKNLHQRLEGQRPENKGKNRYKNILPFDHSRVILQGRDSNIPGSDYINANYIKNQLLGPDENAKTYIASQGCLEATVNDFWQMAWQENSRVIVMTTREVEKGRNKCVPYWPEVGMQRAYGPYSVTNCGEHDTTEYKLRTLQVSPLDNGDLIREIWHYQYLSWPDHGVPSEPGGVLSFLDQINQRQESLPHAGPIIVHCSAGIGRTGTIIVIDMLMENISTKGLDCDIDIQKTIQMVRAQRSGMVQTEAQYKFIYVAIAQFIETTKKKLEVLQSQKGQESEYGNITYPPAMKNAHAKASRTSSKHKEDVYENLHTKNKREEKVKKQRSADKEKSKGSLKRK
PROPERTY NAME: IC50

- COMPOUND: "O=C(Nc1cccc(OCc2ccccc2)c1)C(=O)Nc1ccccc1NC(=O)C(c1ccccc1)S(=O)(=O)O (stereo not shown)"
  TARGET OR SYSTEM: "SHP1 (Homo sapiens, UniProt P29350)"
  VALUE OBSERVED: "> 50 µM"
- COMPOUND: "O=C(Nc1ccc(N2CCOCC2)cc1)C(c1ccccc1)S(=O)(=O)O (stereo not shown)"
  TARGET OR SYSTEM: "SHP1 (Homo sapiens, UniProt P29350)"
  VALUE OBSERVED: "> 200 µM"
- COMPOUND: "O=C(CS(=O)(=O)O)Nc1cnc2ccccc2c1"
  TARGET OR SYSTEM: "SHP1 (Homo sapiens, UniProt P29350)"
  VALUE OBSERVED: "> 100 µM"
- COMPOUND: "O=C(C(c1ccccc1)S(=O)(=O)O)N1CCCC2CCCCC21 (stereo not shown)"
  TARGET OR SYSTEM: "SHP1 (Homo sapiens, UniProt P29350)"
  VALUE OBSERVED: "> 200 µM"
- COMPOUND: "O=C(Nc1ccc2nc(C(F)(F)F)[nH]c2c1)C(c1ccccc1)S(=O)(=O)O (stereo not shown)"
  TARGET OR SYSTEM: "SHP1 (Homo sapiens, UniProt P29350)"
  VALUE OBSERVED: "> 200 µM"
- COMPOUND: "O=C(CS(=O)(=O)O)Nc1nc2ccccc2s1"
  TARGET OR SYSTEM: "SHP1 (Homo sapiens, UniProt P29350)"
  VALUE OBSERVED: "> 100 µM"
- COMPOUND: "CO[C@@]1(NC(=O)C(C(=O)O)c2ccc(O)cc2)C(=O)N2C(C(=O)O)=C(CSc3nnnn3C)CO[C@@H]21 (stereo partly shown) [moxalactam, reference compound]"
  TARGET OR SYSTEM: "SHP1 (Homo sapiens, UniProt P29350)"
  VALUE OBSERVED: "170 µM"
- COMPOUND: "O=C(CS(=O)(=O)O)Nc1nc2ccc([N+](=O)[O-])cc2s1"
  TARGET OR SYSTEM: "SHP1 (Homo sapiens, UniProt P29350)"
  VALUE OBSERVED: "> 100 µM"
- COMPOUND: "Cc1c(Br)cc(NC(=O)C(c2ccccc2)S(=O)(=O)O)cc1Br (stereo not shown)"
  TARGET OR SYSTEM: "SHP1 (Homo sapiens, UniProt P29350)"
  VALUE OBSERVED: "55.5 µM"
- COMPOUND: "O=C(NCCNC(=O)C(c1ccccc1)S(=O)(=O)O)c1cccc(C(=O)c2ccccc2)c1 (stereo not shown)"
  TARGET OR SYSTEM: "SHP1 (Homo sapiens, UniProt P29350)"
  VALUE OBSERVED: "> 200 µM"
- COMPOUND: "Cc1c(Br)cc(NC(=O)CS(=O)(=O)O)cc1Br"
  TARGET OR SYSTEM: "SHP1 (Homo sapiens, UniProt P29350)"
  VALUE OBSERVED: "> 100 µM"
- COMPOUND: "O=C(Nc1ccc(OCc2ccccc2)c(Cl)c1)C(c1ccccc1)S(=O)(=O)O (stereo not shown)"
  TARGET OR SYSTEM: "SHP1 (Homo sapiens, UniProt P29350)"
  VALUE OBSERVED: "53.2 µM"
- COMPOUND: "O=C(Nc1ccc(-n2ccnc2)cc1)C(c1ccccc1)S(=O)(=O)O (stereo not shown)"
  TARGET OR SYSTEM: "SHP1 (Homo sapiens, UniProt P29350)"
  VALUE OBSERVED: "> 200 µM"
- COMPOUND: "O=C(CS(=O)(=O)O)Nc1ccc2nc(C(F)(F)F)[nH]c2c1"
  TARGET OR SYSTEM: "SHP1 (Homo sapiens, UniProt P29350)"
  VALUE OBSERVED: "> 100 µM"
- COMPOUND: "O=C(Nc1ccc(-c2ccccc2)cc1)C(c1ccccc1)S(=O)(=O)O (stereo not shown)"
  TARGET OR SYSTEM: "SHP1 (Homo sapiens, UniProt P29350)"
  VALUE OBSERVED: "64.6 µM"
- COMPOUND: "O=C(C(c1ccccc1)S(=O)(=O)O)N1CCC(Cc2ccccc2)CC1 (stereo not shown)"
  TARGET OR SYSTEM: "SHP1 (Homo sapiens, UniProt P29350)"
  VALUE OBSERVED: "> 200 µM"
- COMPOUND: "O=C(Nc1cnc2ccccc2c1)C(c1ccccc1)S(=O)(=O)O (stereo not shown)"
  TARGET OR SYSTEM: "SHP1 (Homo sapiens, UniProt P29350)"
  VALUE OBSERVED: "> 200 µM"
- COMPOUND: "O=C(C(c1ccccc1)S(=O)(=O)O)N1CCC(c2ccc(Cl)c(Cl)c2)CC1 (stereo not shown)"
  TARGET OR SYSTEM: "SHP1 (Homo sapiens, UniProt P29350)"
  VALUE OBSERVED: "66 µM"
- COMPOUND: "CCCCc1ccc(NC(=O)C(=O)Nc2ccccc2NC(=O)C(c2ccccc2)S(=O)(=O)O)cc1 (stereo not shown)"
  TARGET OR SYSTEM: "SHP1 (Homo sapiens, UniProt P29350)"
  VALUE OBSERVED: "> 50 µM"
